Each recorded value in this set is attributed to PubChem BioAssay (NCI).

Test system: DU-145 prostate
assay summary: NCI tumour cell line growth inhibition, 48 h
parameter measured: GI50

Please review the following examples before continuing.
{"columns": ["smiles str", "meas value"],
 "data": [
  ["N#C/C(=C\\c1ccc2c(c1)OCO2)n1nnc2ccccc21", "1.9 µM"],
  ["O=C1/C(=C/c2ccc(Cl)cc2Cl)CN(S(=O)(=O)c2ccccc2)C/C1=C\\c1ccc(Cl)cc1Cl", "0.466 µM"],
  ["Cc1ccc2c(c1)C(=O)C(c1c(-c3[nH]c(=O)c4ccc(C)cc4c3O)c(O)c3ccccc3c1O)=NC2=O", "1.18 µM"]
]}

List GI50 for every entry below, keeping the order given.
1. Cc1ccc(Cl)cc1Nc1nc(C(F)(F)F)ccc1C(N)=O
2. COc1ccc2c(c1)c(-c1nonc1-c1cn(C)c3ccccc13)cn2C

Output:
9.77 µM
0.528 µM

---

Test system: A549 NSCLC
assay summary: NCI tumour cell line growth inhibition, 48 h
Please provide measured GI50 for the entries that follow.

{"columns": ["smiles str", "GI50"],
 "data": [
  ["COc1cc(Cl)cc(-c2nn(-c3cccc(NC(=O)c4cccc(C(F)(F)F)c4)c3)cc2-c2ccncc2)c1", "3.62 µM"],
  ["COc1cc(/C=C\\c2cc(/C=C\\c3ccc(O)c(OC)c3)n(C(=O)COc3ccc(Cl)cc3Cl)n2)ccc1O", "1.31 µM"],
  ["Cn1ccnc1C(=O)/C=C/c1ccc(C(=O)Nc2ccc(F)cc2)cc1", "1.41 µM"],
  ["CN(C)c1ccc2nc3ccc(=[N+](C)C)c([N+](=O)[O-])c-3sc2c1", "1.46 µM"]
]}

Please turn your attention to the following entry.
Task: // fetch GI50 given entry COc1ccc2c(c1)C(=Nc1ccc(F)c(F)c1F)c1c-2c(Nc2ccc(F)c(F)c2F)nc2ccccc12
Output: > 59.3 µM

---

Test system: LOX IMVI melanoma
assay summary: NCI tumour cell line growth inhibition, 48 h
For each record, write down the corresponding GI50.

Reference set (2 entries):
{"columns": ["molecule", "parameter measured", "meas value"],
 "data": [
  ["Cc1cc2nc(CS)[nH]c2cc1C", "GI50", "12700 nM"],
  ["COC(=O)c1ccc2[nH]c(O)c(C(=Nc3ccc(N(C)C(=O)CN4CCN(C)CC4)cc3)c3cccc(OC)c3)c2c1", "GI50", "654 nM"]
]}

I have 6 molecules here; please give me GI50 for each one.
1. COc1ccc2c(c1)c(-c1nonc1-c1cn(C)c3ccccc13)cn2C
2. O=C(c1ccccc1)N(C(=S)NCCc1ccc(Cl)cc1)c1ccc(Cl)cc1
3. Cn1ccnc1C(=O)/C=C/c1ccc(C(=O)Nc2ccc(F)cc2)cc1
4. N#Cc1cc2c(cc1Cl)SC(=Nc1ccccc1)N(S(=O)(=O)c1ccc(Cl)cc1)S2(=O)=O
5. Fc1cc(-c2csc3n[nH]c(=S)n23)c(Cl)cc1Cl
6. N#C/C(=C\c1ccc2c(c1)OCO2)n1nnc2ccccc21

Output:
1: 588 nM; 2: 2400 nM; 3: 520 nM; 4: 10800 nM; 5: 37200 nM; 6: 990 nM

Could you tell me GI50 for each of these molecules? They are listed below.
1. CC(=O)Oc1cn(-c2ccc(Cl)cc2)nc1C1=NN(C(C)=O)C(c2ccc(F)cc2F)O1 (stereo not given)
2. Cc1ccc(Cl)cc1Nc1nc(C(F)(F)F)ccc1C(N)=O

Output:
30100 nM
2230 nM

---

Assign TGI to each entry below.
System: RXF 393 renal
assay summary: NCI tumour cell line growth inhibition, 48 h

{"columns": ["compound", "TGI"],
 "data": [
  ["CC1=NOC(C)(O)/C1=N/O (centres undefined)", "> 100 µM"],
  ["CC(=O)N(C(C)=O)c1c(N)n(C)c(=O)[nH]c1=O", "> 100 µM"]
]}

Below is a list of compounds. For each, state its recorded TGI.
1. CCOc1ccc(/C=C\c2cc(OC)c(OC)c(OC)c2)cc1
2. COC(=O)C1=C(C(=O)OC)C2(C3C(SC)=CC(C)(C)CC3S1)N(Cc1ccccc1)CCN2Cc1ccccc1 (centres undefined)
3. CC1=C(C(=O)OCCc2ccc([N+](=O)[O-])cc2)C(c2cccc([N+](=O)[O-])c2)C(C(=O)OC(C)C)=C(C)N1 (centres undefined)

Output:
0.000904 µM
> 100 µM
> 100 µM

Hi team, please reply with TGI for each item in this list.
1. C=C1C(=O)O[C@H]2[C@H]1CC/C(COC(=O)NCc1ccc(Cn3c(=O)sn(CCCC)c3=O)cc1)=C\CC[C@@]1(C)O[C@@H]21
2. N/C(=N\Nc1ccc(C(=O)O)cc1)c1cnccn1

Output:
1. 3.04 µM
2. > 100 µM

---

Tested on: MOLT-4 leukemia
assay summary: NCI tumour cell line growth inhibition, 48 h
parameter measured: TGI

In the examples that follow, each entry is paired with its recorded TGI.
{"columns": ["molecule", "TGI"],
 "data": [
  ["N/N=C(\\CCN1CCCC1)CC(c1ccccc1)c1c(O)c2ccccc2oc1=O (stereo not given)", "> 100 µM"],
  ["Cc1ncc(CSc2ccccc2N)c(CO)c1O", "> 100 µM"],
  ["CC1=NOC(C)(O)/C1=N/O (stereo not given)", "> 100 µM"],
  ["C[C@H](Nc1ccc2c(c1)OCCn1cc(N3C(=O)OC[C@H]3C(F)F)nc1-2)C(N)=O", "> 100 µM"],
  ["Cc1ccc(Cl)cc1Nc1nc(C(F)(F)F)ccc1C(N)=O", "48.4 µM"],
  ["CCOC1CCC2C(CCC(/C=C/c3ccc(O)c4ncccc34)N2C)C1 (stereo not given)", "> 100 µM"],
  ["COc1ccc(NC(=O)CSc2nnc(-c3ccc(N=Cc4ccc(Cl)cc4)cc3)o2)cc1", "> 70.2 µM"],
  ["COc1cc(/C=N/NC(=O)c2c(Cl)c(Cl)c(Cl)c(Cl)c2-c2nc3ccccc3[nH]2)ccc1O", "> 100 µM"]
]}

Batch request: TGI per item, same order as input.
1. O=c1cccccc1NCCCCCCCCNc1cccccc1=O
2. CC(=O)COC(=O)CC(C)=O

Output:
1: > 100 µM; 2: > 100 µM

---

Test system: K-562 leukemia
assay summary: NCI tumour cell line growth inhibition, 48 h; in the data active = GI50 below about 0.43 µM; inactive = the rest
Hi there, use one of these labels in your reply, thanks! active, inactive

Illustrative cases are given below, each with its answer.
{"columns": ["molecule", "class assignment"],
 "data": [
  ["COc1cc2c(c(OC)c1OC)-c1ccc(SC)c(=O)cc1C(CC(=O)Oc1ccc(F)cc1)C2 (stereo not drawn)", "active"],
  ["O=C(O)c1ccc2nc(-c3ccc(OCCCCCOc4ccc(-c5nc6ccc(C(=O)O)cc6[nH]5)cc4)cc3)[nH]c2c1", "inactive"]
]}

Task: Answer briefly: the call reported for CN(C)c1ccc2nc3ccc(=[N+](C)C)c([N+](=O)[O-])c-3sc2c1 in this assay.
Output: inactive

Task: What is the recorded call for this molecule in the test? COc1ccc2c3c([nH]c2c1)C(=O)c1nc(C)ccc1C3=O
Output: inactive

Task: Would you mind telling me which call this test gave CN1CCN(CCOc2ccc(-c3cnc4c(-c5cccc(F)c5F)cnn4c3)cc2)CC1 ?
Output: inactive

Task: Would you mind telling me which call this test gave Cc1cc(Cl)ccc1Nc1nc(C(F)(F)F)ccc1C(=O)N/N=C/c1cccc(O)c1 ?
Output: inactive

Task: Which result was noted for this molecule in the test: COc1ccc2cnc(N)c(C#Cc3cc(C(=O)Nc4ccc(CN5CCN(C)CC5)c(C(F)(F)F)c4)cnc3C)c2c1
Output: active

Task: What call does the record list for C[C@H](Nc1ccc2c(c1)OCCn1cc(N3C(=O)OC[C@H]3C(F)F)nc1-2)C(N)=O ?
Output: inactive

---

Can you tell me TGI for the items I'm about to list?
Tested on: RXF 393 renal
assay summary: NCI tumour cell line growth inhibition, 48 h
One number for each entry, in µM.

Please review the following examples before continuing.
{"columns": ["smiles str", "meas value"],
 "data": [
  ["Cc1cc2nc(CS)[nH]c2cc1C", 31.6],
  ["Cc1ccc(SC2=C(N(C)C)C(=O)c3ccccc3C2=O)cc1", 20.8],
  ["N=c1c2c(=S)n(-c3ccccc3)c(=S)n(-c3ccccc3)c2nc(SCCCN2CCCCC2)n1-c1ccccc1", 3.26]
]}

Task: Report TGI for COc1ccccc1NC(=O)c1ccc(NC2=C(Cl)C(=O)N(Cc3ccccc3)C2=O)cc1
Output: 78.8

---

System: OVCAR-8 ovarian
assay summary: NCI tumour cell line growth inhibition, 48 h
parameter measured: GI50

{"columns": ["compound", "GI50"],
 "data": [
  ["Oc1cc2ccccc2cc1-c1n[nH]c(=S)n1CCc1ccccc1", "35500 nM"],
  ["COc1ccccc1NC(=O)c1ccc(NC2=C(Cl)C(=O)N(Cc3ccccc3)C2=O)cc1", "2270 nM"],
  ["CN(C)c1ccc2nc3ccc(=[N+](C)C)c([N+](=O)[O-])c-3sc2c1", "1870 nM"],
  ["Cc1ccc(C2CC(c3cccc(Nc4ccncc4)c3)=NN2c2cc(Cl)cc(Cl)c2)cc1 (stereo not given)", "2210 nM"]
]}

# input for lookup
Task: Supply recorded GI50 for COc1cc(/C=C\c2cc(/C=C\c3ccc(O)c(OC)c3)n(C(=O)COc3ccc(Cl)cc3Cl)n2)ccc1O here.
Output: 1590 nM
